// data source = PubChem BioAssay (NCATS)

target: Cytochrome P450 2D6 (Homo sapiens); assay: Cytochrome P450 family 2 subfamily D member 6 (CYP2D6) small molecule antagonists: luciferase biochemical (cell-free) qHTS assay (AID 1645840); conditions: P450-Glo CYP2D6 enzyme, luciferin luminescence, 1 h; series mostly up to 57.4 µM; also: nearly all actives have a fitted effect of over 55% in size
Records with an inconclusive call do not appear. Activity calls are given as the source filed them. Calls follow the shape of the dose curve; as a rule, active = well fitted inhibition curve with a large enough effect in the repeat runs; inconclusive = weak or mixed curves; inactive = flat fitted curve, though single readings scatter.
Returns: one label drawn from 1 (yes) for active, 0 (no) for inactive

Input line: Each compound tested received a call. Report the one for O=C(CCCl)NCCc1ccccc1 .
Output line: 0 (no)

Input line: Each compound tested received a call. Report the one for CC(C)CCCC(C)NCCC(C)C (stereo unspecified) .
Output line: 1 (yes)

Input line: Each compound tested received a call. Report the one for CN=C(N)NC(=O)Nc1c(C)cccc1C .
Output line: 0 (no)

Input line: Each compound tested received a call. Report the one for CC(=O)[C@@]1(O)CC[C@H]2[C@@H]3C[C@H](C)C4=CC(=O)CC[C@]4(C)[C@H]3CC[C@@]21C .
Output line: 0 (no)

Input line: Each compound tested received a call. Report the one for COc1cc2c(cc1OC)CN(C(=O)[C@H](C)N[C@@H](CCc1ccccc1)C(=O)O)[C@H](C(=O)O)C2 .
Output line: 0 (no)

Input line: Each compound tested received a call. Report the one for Cc1cccc(N(C)C(=S)Oc2ccc3c(c2)CCC3)c1 .
Output line: 0 (no)

Input line: Each compound tested received a call. Report the one for N#Cc1cc(NC(=O)C(=O)O)c(Cl)c(NC(=O)C(=O)O)c1 .
Output line: 0 (no)

Input line: Each compound tested received a call. Report the one for CCOC(=O)C(=O)c1csc(NC=O)n1 .
Output line: 1 (yes)

Input line: Each compound tested received a call. Report the one for O=C(O)c1[nH]n(-c2ccc(S(=O)(=O)O)cc2)c(=O)c1N=Nc1ccc(S(=O)(=O)O)cc1 .
Output line: 0 (no)

Input line: Each compound tested received a call. Report the one for CCC1(c2cnc[nH]2)Cc2ccccc2C1 .
Output line: 1 (yes)

Input line: Each compound tested received a call. Report the one for CO/N=C(/C(=O)N[C@@H]1C(=O)N2C(C(=O)[O-])=C(C[n+]3ccn4ncccc43)CS[C@H]12)c1nsc(N)n1 .
Output line: 0 (no)

Input line: Each compound tested received a call. Report the one for CCOC(=O)O[C@]1(C(=O)OCCl)CC[C@H]2[C@@H]3CCC4=CC(=O)C=C[C@]4(C)[C@H]3[C@@H](O)C[C@@]21C .
Output line: 0 (no)

Input line: Each compound tested received a call. Report the one for COc1ccc(/C(C)=C/C(=O)O)c(OC)c1 .
Output line: 0 (no)

Input line: Each compound tested received a call. Report the one for COC(=O)C1=C(C)NC(C)=C(C(=O)OCCc2ccc(N3CCN(C(c4ccccc4)c4ccccc4)CC3)cc2)C1c1cccc([N+](=O)[O-])c1 (stereo unspecified) .
Output line: 0 (no)

Input line: Each compound tested received a call. Report the one for CN1C(=O)c2ccccc2C1=O .
Output line: 0 (no)

Input line: Each compound tested received a call. Report the one for O=c1[nH]c(=O)n([C@H]2O[C@H](CO)[C@@H](O)[C@@H]2O)cc1/C=C\Br .
Output line: 0 (no)

Input line: Each compound tested received a call. Report the one for C[C@@H](C1=C(CCN(C)C)Cc2ccccc21)c1ccccn1 .
Output line: 1 (yes)

Input line: Each compound tested received a call. Report the one for CC(=O)N[C@@H](CCC(N)=O)C(=O)O .
Output line: 0 (no)

Input line: Each compound tested received a call. Report the one for O=C(Nc1ccc(Cl)cc1)Nc1ccc(Cl)c(C(F)(F)F)c1 .
Output line: 1 (yes)

Input line: Each compound tested received a call. Report the one for Cc1nc2n(c(=O)c1CCN1CCC(C(=O)c3ccc(F)cc3)CC1)CCS2 .
Output line: 1 (yes)

Input line: Each compound tested received a call. Report the one for CCN1CCN(C(=O)N[C@@H](C(=O)N[C@@H]2C(=O)N3[C@@H]2SC(C)(C)[C@H]3C(=O)O)c2ccccc2)C(=O)C1=O .
Output line: 0 (no)
